targetDesc: B-Raf (Homo sapiens (Human), UniProt P15056)
Sequence (P15056 whole entry): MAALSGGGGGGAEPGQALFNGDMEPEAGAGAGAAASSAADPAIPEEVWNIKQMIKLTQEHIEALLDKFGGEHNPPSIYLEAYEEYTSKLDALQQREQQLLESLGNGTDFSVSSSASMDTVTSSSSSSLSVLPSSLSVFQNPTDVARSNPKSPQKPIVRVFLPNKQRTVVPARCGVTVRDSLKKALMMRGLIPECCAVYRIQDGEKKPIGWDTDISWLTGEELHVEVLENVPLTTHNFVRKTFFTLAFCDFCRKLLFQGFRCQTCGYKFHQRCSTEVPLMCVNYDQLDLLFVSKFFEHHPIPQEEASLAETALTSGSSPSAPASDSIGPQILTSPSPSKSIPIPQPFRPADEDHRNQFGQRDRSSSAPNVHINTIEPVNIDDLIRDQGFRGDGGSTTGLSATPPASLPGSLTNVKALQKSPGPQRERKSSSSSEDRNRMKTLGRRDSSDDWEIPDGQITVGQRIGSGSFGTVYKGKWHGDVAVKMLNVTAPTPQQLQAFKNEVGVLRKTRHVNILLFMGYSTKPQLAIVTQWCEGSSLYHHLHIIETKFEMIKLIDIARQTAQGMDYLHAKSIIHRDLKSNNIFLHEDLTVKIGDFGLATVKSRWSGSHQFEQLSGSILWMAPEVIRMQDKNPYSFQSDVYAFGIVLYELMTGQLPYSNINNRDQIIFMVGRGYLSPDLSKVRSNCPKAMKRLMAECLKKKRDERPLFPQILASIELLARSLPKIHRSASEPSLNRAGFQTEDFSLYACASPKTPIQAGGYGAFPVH

>  <molecule>
COc1ccc(C(=O)Nc2ccc(F)c(Nc3ncccc3-c3ncnc4[nH]cnc34)c2F)cc1 [Example 53]

>  <targetDesc>
B-Raf (Homo sapiens (Human), UniProt P15056)

>  <IC50 / nM>
14

$$$$
>  <molecule>
CC(C)(C#N)c1cc(F)cc(C(=O)Nc2cc(Nc3ncccc3-c3ncnc4[nH]cnc34)ccc2F)c1 [Example 33]

>  <targetDesc>
B-Raf (Homo sapiens (Human), UniProt P15056)

>  <IC50 / nM>
94

$$$$
>  <molecule>
CC(C)(C#N)c1cccc(C(=O)Nc2cccc(Nc3ncccc3-c3ncnc4[nH]cnc34)c2)c1 [Example 23]

>  <targetDesc>
B-Raf (Homo sapiens (Human), UniProt P15056)

>  <IC50 / nM>
17

$$$$
>  <molecule>
CC(C)(C#N)c1cccc(C(=O)Nc2ccc(F)c(Nc3ncccc3-c3ncnc4[nH]cnc34)c2F)c1 [Example 9]

>  <targetDesc>
B-Raf (Homo sapiens (Human), UniProt P15056)

>  <IC50 / nM>
2

$$$$
>  <molecule>
O=C(Nc1cc(Nc2ncccc2-c2ncnc3[nH]cnc23)ccc1F)c1cccc(C(F)(F)F)c1 [Example 30]

>  <targetDesc>
B-Raf (Homo sapiens (Human), UniProt P15056)

>  <IC50 / nM>
2.7

$$$$
>  <molecule>
CC(C)(C#N)c1cccc(C(=O)Nc2cc(Nc3ncccc3-c3ncnc4[nH]cnc34)ccc2F)c1 [Example 21]

>  <targetDesc>
B-Raf (Homo sapiens (Human), UniProt P15056)

>  <IC50 / nM>
21

$$$$
>  <molecule>
O=C(Nc1cc(Nc2ncccc2-c2ncnc3[nH]cnc23)ccc1F)c1cc(Cl)cc(C(F)(F)F)c1 [Example 135]

>  <targetDesc>
B-Raf (Homo sapiens (Human), UniProt P15056)

>  <IC50 / nM>
161

$$$$

* * *

The entries below are paired with their reported pIC50.
targetDesc: B-Raf V600E (Homo sapiens (Human), UniProt P15056, V600E)
Sequence (P15056 whole entry V600E): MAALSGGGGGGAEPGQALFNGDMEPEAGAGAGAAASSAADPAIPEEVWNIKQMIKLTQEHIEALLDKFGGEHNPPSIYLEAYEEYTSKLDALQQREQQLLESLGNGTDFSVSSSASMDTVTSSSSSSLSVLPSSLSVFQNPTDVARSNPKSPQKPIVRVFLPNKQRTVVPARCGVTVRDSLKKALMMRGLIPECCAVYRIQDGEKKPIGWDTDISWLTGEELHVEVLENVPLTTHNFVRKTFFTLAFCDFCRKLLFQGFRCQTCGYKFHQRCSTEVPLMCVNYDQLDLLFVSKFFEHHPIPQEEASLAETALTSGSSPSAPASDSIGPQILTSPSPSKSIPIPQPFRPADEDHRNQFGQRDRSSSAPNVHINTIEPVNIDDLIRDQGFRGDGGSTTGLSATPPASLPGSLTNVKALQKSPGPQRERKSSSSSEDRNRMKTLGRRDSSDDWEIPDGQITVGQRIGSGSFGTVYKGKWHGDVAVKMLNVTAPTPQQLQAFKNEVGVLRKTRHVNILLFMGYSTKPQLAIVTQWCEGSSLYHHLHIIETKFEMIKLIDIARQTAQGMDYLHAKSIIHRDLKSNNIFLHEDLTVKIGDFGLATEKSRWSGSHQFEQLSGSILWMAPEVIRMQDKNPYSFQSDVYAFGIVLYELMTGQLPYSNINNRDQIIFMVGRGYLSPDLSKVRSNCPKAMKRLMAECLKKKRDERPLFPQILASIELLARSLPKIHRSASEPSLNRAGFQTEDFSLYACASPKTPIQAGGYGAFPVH
assayMethodText: Raf kinase inhibitory activity (Raf/MEK1/MAPK2 cascade, MBP phosphorylation, 32P)
pIC50: −log10 of the molar value.

>  <molecule>
O=C(Nc1cc(Nc2ncccc2-c2ncnc3[nH]cnc23)ccc1F)c1cc(F)cc(C(F)(F)F)c1 [Example 36]

>  <pIC50>
7.52

$$$$
>  <molecule>
CC(C)(C#N)c1cccc(C(=O)Nc2cc(Nc3ncccc3-c3ncnc4[nH]cnc34)ccc2F)c1 [Example 21]

>  <pIC50>
8.00

$$$$
>  <molecule>
O=C(Nc1cc(Nc2ncccc2-c2ncnc3[nH]cnc23)ccc1F)c1cccc(C(F)(F)F)c1 [Example 30]

>  <pIC50>
8.28

$$$$

* * *

targetDesc: B-Raf V600E (Homo sapiens (Human), UniProt P15056, V600E)
assayMethodText: Raf kinase inhibitory activity (Raf/MEK1/MAPK2 cascade, MBP phosphorylation, 32P)
reportedProperty: IC50 (nM)

>  <compound>
O=C(Nc1ccc(F)c(Nc2ncccc2-c2ncnc3[nH]cnc23)c1F)c1cccc(C(F)(F)F)c1 [Example 1]

>  <targetDesc>
B-Raf V600E (Homo sapiens (Human), UniProt P15056, V600E)

>  <dataValue>
16

$$$$
>  <compound>
CC(C)(C#N)c1cccc(C(=O)Nc2ccc(F)c(Nc3ncccc3-c3ncnc4[nH]cnc34)c2F)c1 [Example 9]

>  <targetDesc>
B-Raf V600E (Homo sapiens (Human), UniProt P15056, V600E)

>  <dataValue>
0.2

$$$$
>  <compound>
CC(C)(C#N)c1cc(F)cc(C(=O)Nc2cc(Nc3ncccc3-c3ncnc4[nH]cnc34)ccc2F)c1 [Example 33]

>  <targetDesc>
B-Raf V600E (Homo sapiens (Human), UniProt P15056, V600E)

>  <dataValue>
33

$$$$
>  <compound>
O=C(Nc1cc(Nc2ncccc2-c2ncnc3[nH]cnc23)ccc1F)c1cc(Cl)cc(C(F)(F)F)c1 [Example 135]

>  <targetDesc>
B-Raf V600E (Homo sapiens (Human), UniProt P15056, V600E)

>  <dataValue>
86

$$$$
>  <compound>
O=C(Nc1cc(Nc2ncccc2-c2ncnc3[nH]cnc23)ccc1F)c1cc(C(F)(F)F)cc(C(F)(F)F)c1 [Example 65]

>  <targetDesc>
B-Raf V600E (Homo sapiens (Human), UniProt P15056, V600E)

>  <dataValue>
187

$$$$
>  <compound>
COc1ccc(C(=O)Nc2ccc(F)c(Nc3ncccc3-c3ncnc4[nH]cnc34)c2F)cc1 [Example 53]

>  <targetDesc>
B-Raf V600E (Homo sapiens (Human), UniProt P15056, V600E)

>  <dataValue>
6

$$$$
>  <compound>
CC(C)(C#N)c1cccc(C(=O)Nc2cccc(Nc3ncccc3-c3ncnc4[nH]cnc34)c2)c1 [Example 23]

>  <targetDesc>
B-Raf V600E (Homo sapiens (Human), UniProt P15056, V600E)

>  <dataValue>
7

$$$$

* * *

System: WiDR BRAF V600E (colon)
assayMethodText: MTT assay
Assay type: cell-based
conditionsUsed: Homo sapiens, 72 h, Table 5, 3 days incubation, read-out: MTT assay IC50 BRAF mutant (Colon) WiDR BRAF V600E

>  <chemSmiles>
CC(C)(C#N)c1cc(C(=O)Nc2cc(Nc3ncccc3-c3ncnc4[nH]cnc34)ccc2F)cc(C(F)(F)F)c1

>  <IC50 (nM)>
97

$$$$
>  <chemSmiles>
COc1ccc(C(=O)Nc2ccc(F)c(Nc3ncccc3-c3ncnc4[nH]cnc34)c2F)cc1

>  <IC50 (nM)>
391

$$$$
>  <chemSmiles>
CC(C)(C#N)c1cccc(C(=O)Nc2cccc(Nc3ncccc3-c3ncnc4[nH]cnc34)c2)c1

>  <IC50 (nM)>
62

$$$$
>  <chemSmiles>
O=C(Nc1cc(Nc2ncccc2-c2ncnc3[nH]cnc23)ccc1F)c1cc(F)cc(C(F)(F)F)c1

>  <IC50 (nM)>
644

$$$$
>  <chemSmiles>
CC(C)(C#N)c1cccc(C(=O)Nc2ccc(F)c(Nc3ncccc3-c3ncnc4[nH]cnc34)c2F)c1

>  <IC50 (nM)>
58

$$$$
>  <chemSmiles>
O=C(Nc1ccc(F)c(Nc2ncccc2-c2ncnc3[nH]cnc23)c1F)c1cccc(C(F)(F)F)c1

>  <IC50 (nM)>
115

$$$$
>  <chemSmiles>
Cc1cc(C(=O)Nc2cc(Nc3ncccc3-c3ncnc4[nH]cnc34)ccc2F)cc(C(F)(F)F)c1

>  <IC50 (nM)>
116

$$$$

* * *

System: LS513 human colorectal cancer cell line xenograft
assayMethodText: Antitumor effect on human colorectal cancer LS513 cell line xenograft
Assay type: in vivo, Balb/c nu/nu nude mice
conditionsUsed: oral, twice a day, 60 mg/kg or 30 mg/kg (dose not specified per compound), 14 days
Procedure: In this experiment, 5 to 6-week-old female Balb/c nu/nu nude mice (weighed 18 to 20 g) were used. The mice were provided from Nara Biotech Co., Ltd. During the experiment, all the animals were housed on a mouse constant temperature/constant humidity shelf (Individually Ventilated Cages System, LAB & BIO). […] Tumor growth inhibition for absolute tumor volume was calculated using the following equation. […]
The entries below are paired with their reported antitumor effect (tumor growth inhibition) compared to the vehicle control.
reportedProperty: antitumor effect (tumor growth inhibition) compared to the vehicle control (%)

>  <chemSmiles>
Cc1cn(-c2cc(NC(=O)Nc3ccc(F)c(Nc4ncccc4-c4ncnc5[nH]cnc45)c3F)cc(C(F)(F)F)c2)cn1

>  <u>
%

>  <dataValue>
83.51

$$$$
>  <chemSmiles>
CC(C)(C#N)c1cc(F)cc(C(=O)Nc2cc(Nc3ncccc3-c3ncnc4[nH]cnc34)ccc2F)c1

>  <u>
%

>  <dataValue>
96.0

$$$$
>  <chemSmiles>
COc1cc(C(=O)Nc2cc(Nc3ncccc3-c3ncnc4[nH]cnc34)ccc2F)cc(C(F)(F)F)c1

>  <u>
%

>  <dataValue>
57.9

$$$$
>  <chemSmiles>
O=C(Nc1cc(Nc2ncccc2-c2ncnc3[nH]cnc23)ccc1F)c1cc(F)cc(C(F)(F)F)c1

>  <u>
%

>  <dataValue>
78.5

$$$$
>  <chemSmiles>
CCN1CCN(Cc2ccc(NC(=O)Nc3ccc(F)c(Nc4ncccc4-c4ncnc5[nH]cnc45)c3F)cc2C(F)(F)F)CC1

>  <u>
%

>  <dataValue>
69.06

$$$$

* * *

What follows is a record of pIC50 for UniProt P04049.
Sequence (P04049 whole entry): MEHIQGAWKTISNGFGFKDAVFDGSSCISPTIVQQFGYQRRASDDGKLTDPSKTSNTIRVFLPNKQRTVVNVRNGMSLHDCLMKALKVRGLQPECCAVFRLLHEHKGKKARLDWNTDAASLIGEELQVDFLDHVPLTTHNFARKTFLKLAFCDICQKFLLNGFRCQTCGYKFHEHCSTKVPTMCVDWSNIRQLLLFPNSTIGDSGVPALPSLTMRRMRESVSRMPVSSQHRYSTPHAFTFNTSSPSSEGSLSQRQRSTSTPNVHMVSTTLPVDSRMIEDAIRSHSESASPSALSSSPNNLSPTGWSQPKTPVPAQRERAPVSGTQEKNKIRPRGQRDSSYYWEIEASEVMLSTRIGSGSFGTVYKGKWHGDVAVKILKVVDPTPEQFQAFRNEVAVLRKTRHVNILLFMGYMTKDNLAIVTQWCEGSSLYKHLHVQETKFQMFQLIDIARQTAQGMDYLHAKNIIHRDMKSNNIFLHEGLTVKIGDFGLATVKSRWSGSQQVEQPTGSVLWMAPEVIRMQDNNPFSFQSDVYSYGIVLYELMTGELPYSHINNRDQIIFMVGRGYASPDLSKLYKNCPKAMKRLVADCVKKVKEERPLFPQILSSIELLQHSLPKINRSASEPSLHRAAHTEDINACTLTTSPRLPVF
pIC50: −log10 of the molar value.
reportedProperty: pIC50

>  <chemSmiles>
COc1ccc(C(=O)Nc2ccc(F)c(Nc3ncccc3-c3ncnc4[nH]cnc34)c2F)cc1

>  <dataValue>
8.15

$$$$
>  <chemSmiles>
CC(C)(C#N)c1cccc(C(=O)Nc2cc(Nc3ncccc3-c3ncnc4[nH]cnc34)ccc2F)c1

>  <dataValue>
8.00

$$$$
>  <chemSmiles>
O=C(Nc1cc(Nc2ncccc2-c2ncnc3[nH]cnc23)ccc1F)c1cc(Cl)cc(C(F)(F)F)c1

>  <dataValue>
7.47

$$$$
>  <chemSmiles>
CC(C)(C#N)c1cc(F)cc(C(=O)Nc2cc(Nc3ncccc3-c3ncnc4[nH]cnc34)ccc2F)c1

>  <dataValue>
7.62

$$$$
>  <chemSmiles>
CC(C)(C#N)c1cccc(C(=O)Nc2cccc(Nc3ncccc3-c3ncnc4[nH]cnc34)c2)c1

>  <dataValue>
8.10

$$$$
>  <chemSmiles>
O=C(Nc1cc(Nc2ncccc2-c2ncnc3[nH]cnc23)ccc1F)c1cccc(C(F)(F)F)c1

>  <dataValue>
9.15

$$$$
>  <chemSmiles>
O=C(Nc1cc(Nc2ncccc2-c2ncnc3[nH]cnc23)ccc1F)c1cc(C(F)(F)F)cc(C(F)(F)F)c1

>  <dataValue>
6.59

$$$$
>  <chemSmiles>
CC(C)(C#N)c1cccc(C(=O)Nc2ccc(F)c(Nc3ncccc3-c3ncnc4[nH]cnc34)c2F)c1

>  <dataValue>
9.22

$$$$
>  <chemSmiles>
O=C(Nc1ccc(F)c(Nc2ncccc2-c2ncnc3[nH]cnc23)c1F)c1cccc(C(F)(F)F)c1

>  <dataValue>
7.64

$$$$
>  <chemSmiles>
O=C(Nc1cc(Nc2ncccc2-c2ncnc3[nH]cnc23)ccc1F)c1cc(F)cc(C(F)(F)F)c1

>  <dataValue>
7.39

$$$$
